Reference source for all entries: paper PMC12516379

# experiment summary: Plasma stability assay at 37 °C via LC-MS/MS, human plasma;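 further: prodrugs at 3 µM incubated in human plasma at 37 °C, intact prodrug quantified by LC-MS/MS over time, values are means of duplicate runs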
# Type: in vitro ADME
# condition set: 2 h
Lab note: anything with Plasma, 37 °C %rem. at 2h (Table S23) at or over 30% counts as YES; the rest go in NO.

Before answering, review these 5 worked examples.
# input Please check the record C/C(=N\OC(=O)N(CCN(C)C)CCN(C)C)[C@H]1CC[C@H]2[C@@H]3CCC4=CC(=O)CC[C@]4(C)[C@H]3CC[C@]12C [20y] and state if its Plasma, 37 °C %rem. at 2h (Table S23) is at or above 30%.
# output YES

# input Please check the record CNCCN(C(=O)O/N=C(\C)[C@H]1CC[C@H]2[C@@H]3CCC4=CC(=O)CC[C@]4(C)[C@H]3CC[C@]12C)C1CCCC1.O=C(O)C(F)(F)F [20e] and state if its Plasma, 37 °C %rem. at 2h (Table S23) is at or above 30%.
# output YES

# input Please check the record CNCCN(C)C(=O)O/N=C(\C)[C@H]1CC[C@H]2[C@@H]3CCC4C[C@H](O)CC[C@]4(C)[C@H]3CC[C@]12C.O=C(O)C(F)(F)F (stereo partly shown) [21a] and state if its Plasma, 37 °C %rem. at 2h (Table S23) is at or above 30%.
# output NO

# input Please check the record C/C(=N\OC(=O)N(C)C[C@@H]1CCCN1)[C@H]1CC[C@H]2[C@@H]3CCC4=CC(=O)CC[C@]4(C)[C@H]3CC[C@]12C.O=C(O)C(F)(F)F [20l] and state if its Plasma, 37 °C %rem. at 2h (Table S23) is at or above 30%.
# output NO

# input Please check the record CNCCN(C)C(=O)O/N=C(\C)[C@H]1CC[C@H]2[C@@H]3CCC4=CC(=O)CC[C@]4(C)[C@H]3CC[C@]12C [20a] and state if its Plasma, 37 °C %rem. at 2h (Table S23) is at or above 30%.
# output YES

Next up:
# input Please check the record CNCCN(C(=O)O/N=C(\C)[C@H]1CC[C@H]2[C@@H]3CCC4=CC(=O)CC[C@]4(C)[C@H]3CC[C@]12C)C1CC1.O=C(O)C(F)(F)F [20b] and state if its Plasma, 37 °C %rem. at 2h (Table S23) is at or above 30%.
# output YES

----------
Could you please report measured half-life at 1 mg/mL for the items listed next?
# experiment summary: Stability in PBS at room temperature via HPLC (UV)
# Type: physicochemical
# condition set: phosphate-buffered saline (DPBS), pH 7.03, PBS, rt, HPLC (UV); read-out: Half-life (t½) PBS rt (converted)
One number for each entry, in min.

response.value for C/C(=N\OC(=O)N(C)C[C@@H]1CC2(CC2)CN1)[C@H]1CC[C@H]2[C@@H]3CCC4=CC(=O)CC[C@]4(C)[C@H]3CC[C@]12C [20q] (field: half-life at 1 mg/mL) = 261

response.value for CNCCN(CCN1CCOCC1)C(=O)O/N=C(\C)[C@H]1CC[C@H]2[C@@H]3CCC4=CC(=O)CC[C@]4(C)[C@H]3CC[C@]12C.O=C(O)C(F)(F)F [20j] (field: half-life at 1 mg/mL) = 1310

response.value for CNCCN(C(=O)O/N=C(\C)[C@H]1CC[C@H]2[C@@H]3CCC4=CC(=O)CC[C@]4(C)[C@H]3CC[C@]12C)C(C)C.O=C(O)C(F)(F)F [20c] (field: half-life at 1 mg/mL) = 1180

response.value for CNCCN(C)C(=O)O/N=C(\C)[C@H]1CC[C@H]2[C@@H]3CCC4=CC(=O)CC[C@]4(C)[C@H]3CC[C@]12C [20a] (field: half-life at 1 mg/mL) = 2810

response.value for CNCCN(CCN1CCCC1)C(=O)O/N=C(\C)[C@H]1CC[C@H]2[C@@H]3CCC4=CC(=O)CC[C@]4(C)[C@H]3CC[C@]12C.O=C(O)C(F)(F)F [20h] (field: half-life at 1 mg/mL) = 434

Would you kindly look at the next entry?
response.value for C/C(=N\OC(=O)N(C)C[C@@H]1C[C@H](N(C)C)CN1)[C@H]1CC[C@H]2[C@@H]3CCC4=CC(=O)CC[C@]4(C)[C@H]3CC[C@]12C [20u] (field: half-life at 1 mg/mL) = 452

----------
Could you please report measured half-life at 1 mg/mL for the items listed next?
# experiment summary: Stability in acetate buffer pH 5.0 at room temperature via HPLC (UV)
# Assay type: physicochemical
# condition set: pH 5, acetate buffer pH 5.0, rt, read-out: t½: pH 5.0, rt (Table S23) (converted)

Some entries whose results are on file:
response.value for C/C(=N\OC(=O)N(CCO)CCNCCO)[C@H]1CC[C@H]2[C@@H]3CCC4=CC(=O)CC[C@]4(C)[C@H]3CC[C@]12C.Cl [20z] (field: half-life at 1 mg/mL) = > 168 h

response.value for C/C(=N\OC(=O)N(C)C[C@@H]1CCCN1)[C@H]1CC[C@H]2[C@@H]3CCC4=CC(=O)CC[C@]4(C)[C@H]3CC[C@]12C.O=C(O)C(F)(F)F [20l] (field: half-life at 1 mg/mL) = 175 h

Would you kindly look at the next entry?
response.value for C/C(=N\OC(=O)N(C)C[C@H]1CCCN1)[C@H]1CC[C@H]2[C@@H]3CCC4=CC(=O)CC[C@]4(C)[C@H]3CC[C@]12C.O=C(O)C(F)(F)F [20m] (field: half-life at 1 mg/mL) = > 168 h

----------
# experiment summary: PBS stability assay at 37 °C via LC-MS/MS
# Assay type: physicochemical
# condition set: phosphate-buffered saline (DPBS), pH 7.03, PBS, 37 °C, LC-MS/MS; read-out: Half-life (t½) PBS 37°C (converted)
Lab note: anything with half-life at 3 µM at or over 60 min counts as Yes; the rest go in No.

# input Please check the record CNCCN(C(=O)O/N=C(\C)[C@H]1CC[C@H]2[C@@H]3CCC4=CC(=O)CC[C@]4(C)[C@H]3CC[C@]12C)C1CC1.O=C(O)C(F)(F)F [20b] and state if its half-life at 3 µM is at or above 60 min.
# output Yes

# input Please check the record CNCCN(C(=O)O/N=C(\C)[C@H]1CC[C@H]2[C@@H]3CCC4C[C@H](O)CC[C@]4(C)[C@H]3CC[C@]12C)C(C)C.O=C(O)C(F)(F)F (stereo partly shown) [21c] and state if its half-life at 3 µM is at or above 60 min.
# output Yes

# input Please check the record CNCCN(C(=O)O/N=C(\C)[C@H]1CC[C@H]2[C@@H]3CCC4=CC(=O)CC[C@]4(C)[C@H]3CC[C@]12C)C1CCC1.O=C(O)C(F)(F)F [20d] and state if its half-life at 3 µM is at or above 60 min.
# output Yes

# input Please check the record C/C(=N\OC(=O)N(C)C[C@@H]1CCCN1)[C@H]1CC[C@H]2[C@@H]3CCC4=CC(=O)CC[C@]4(C)[C@H]3CC[C@]12C.O=C(O)C(F)(F)F [20l] and state if its half-life at 3 µM is at or above 60 min.
# output No

# input Please check the record C/C(=N\OC(=O)N(C)C[C@@H]1CC(F)(F)CN1)[C@H]1CC[C@H]2[C@@H]3CCC4=CC(=O)CC[C@]4(C)[C@H]3CC[C@]12C [20r] and state if its half-life at 3 µM is at or above 60 min.
# output Yes

# input Please check the record C/C(=N\OC(=O)N(C)C[C@@H]1CCN1)[C@H]1CC[C@H]2[C@@H]3CCC4=CC(=O)CC[C@]4(C)[C@H]3CC[C@]12C [20o] and state if its half-life at 3 µM is at or above 60 min.
# output No

----------
Could you please report measured solubility for the items listed next?
# experiment summary: Aqueous solubility by visual inspection in acetate buffer (pH 5)
# condition set: sodium acetate buffer, pH 5, aqueous buffer, thermodynamic from solid

response.value for C/C(=N\OC(=O)N(C)C[C@@H]1CC2(CC2)CN1)[C@H]1CC[C@H]2[C@@H]3CCC4=CC(=O)CC[C@]4(C)[C@H]3CC[C@]12C [20q] (field: solubility) = > 10000 µg/mL

response.value for CNCCN(CC(C)C)C(=O)O/N=C(\C)[C@H]1CC[C@H]2[C@@H]3CCC4=CC(=O)CC[C@]4(C)[C@H]3CC[C@]12C.O=C(O)C(F)(F)F [20f] (field: solubility) = > 10000 µg/mL

response.value for CNCCN(C)C(=O)O/N=C(\C)[C@H]1CC[C@H]2[C@@H]3CCC4=CC(=O)CC[C@]4(C)[C@H]3CC[C@]12C [20a] (field: solubility) = > 10000 µg/mL

Dear reader, for each entry below, please note its solubility.
1. CNCCN(CCn1ccnc1)C(=O)O/N=C(\C)[C@H]1CC[C@H]2[C@@H]3CCC4=CC(=O)CC[C@]4(C)[C@H]3CC[C@]12C [20k]
2. C/C(=N\OC(=O)N(C)C[C@H]1CCCN1)[C@H]1CC[C@H]2[C@@H]3CCC4=CC(=O)CC[C@]4(C)[C@H]3CC[C@]12C.O=C(O)C(F)(F)F [20m]
3. CNCCN(C(=O)O/N=C(\C)[C@H]1CC[C@H]2[C@@H]3CCC4C[C@H](O)CC[C@]4(C)[C@H]3CC[C@]12C)C(C)C.O=C(O)C(F)(F)F (stereo partly drawn) [21c]
4. CNCCN(CCN1CCOCC1)C(=O)O/N=C(\C)[C@H]1CC[C@H]2[C@@H]3CCC4=CC(=O)CC[C@]4(C)[C@H]3CC[C@]12C.O=C(O)C(F)(F)F [20j]

# output
> 10000 µg/mL
> 10000 µg/mL
> 5000 µg/mL
> 10000 µg/mL

Dear reader, for each entry below, please note its solubility.
1. C/C(=N\OC(=O)N(C)C[C@@H]1CCN1)[C@H]1CC[C@H]2[C@@H]3CCC4=CC(=O)CC[C@]4(C)[C@H]3CC[C@]12C [20o]
2. C/C(=N\OC(=O)N(C)C[C@@H]1CCCN1)[C@H]1CC[C@H]2[C@@H]3CCC4C[C@H](O)CC[C@]4(C)[C@H]3CC[C@]12C (stereo partly drawn) [21l]
3. CNC1(CN(C)C(=O)O/N=C(\C)[C@H]2CC[C@H]3[C@@H]4CCC5=CC(=O)CC[C@]5(C)[C@H]4CC[C@]23C)CC1 [20s]

# output
1. > 10000 µg/mL
2. > 5000 µg/mL
3. > 10000 µg/mL
